Values from patent US7598286B2

- Test system: NF-κB luciferase reporter in Ad5-wt-hERα infected HAECT-1 cells
- assayDetails: ER/NF-κB-luc: IL-1β induced NF-κB luciferase reporter in Ad5-wt-ER infected HAECT-1 cells
- Type: cell-based
- experimentalConditions: Homo sapiens, HAECT1; efficacy relative to the maximal inhibition observed with E2; read-out: ER/NF-KB-luc % Eff*
reportedEndpoint: Emax (%)

>>> readoutvalue("O=C(c1ccc(O)cc1)c1n[nH]c2c(C(F)(F)F)cccc12")
43
>>> readoutvalue("O=C(c1cccc(O)c1)c1n[nH]c2c(C(F)(F)F)cccc12")
88
>>> readoutvalue("O=C(c1cccc(O)c1)c1nn(Cc2ccccc2)c2ccccc12")
92
>>> readoutvalue("CC(C)n1nc(C(=O)c2ccc(O)cc2)c2cccc(C(F)(F)F)c21")
80
>>> readoutvalue("C=CCn1nc(C(=O)c2cccc(O)c2)c2ccccc21")
92
>>> readoutvalue("O=C(c1cccc(O)c1)c1nn(C2C=CCCC2)c2ccccc12 (centres unmarked)")
87
>>> readoutvalue("C=C(C)Cn1nc(C(=O)c2cccc(O)c2)c2ccccc21")
103
>>> readoutvalue("O=C(c1ccc(O)cc1)c1nn(C2CCCC2)c2c(C(F)(F)F)cccc12")
87
>>> readoutvalue("C[C@]12CC[C@@H]3c4ccc(O)cc4CC[C@H]3[C@@H]1CC[C@@H]2O [Example E2, 17β-estradiol, reference compound]")
100
>>> readoutvalue("CC(C)n1nc(C(=O)c2cccc(O)c2)c2cccc(C(F)(F)F)c21")
85
>>> readoutvalue("CCCn1nc(C(=O)c2cccc(O)c2)c2cccc(C(F)(F)F)c21")
82
>>> readoutvalue("COc1cccc(-n2nc(C(=O)c3cccc(O)c3)c3ccccc32)c1")
75
>>> readoutvalue("CC(C)n1nc(C(=O)c2cccc(O)c2)c2ccccc21")
83
>>> readoutvalue("O=C(c1cccc(O)c1)c1c2ccccc2nn1-c1ccc(Br)cc1")
79

---

- System: creatine kinase expression in Ad5-wt-hERα infected HAECT-1 cells
- assayDetails: ER/CK: creatine kinase expression in Ad5-wt-ER infected HAECT-1 cells
- Assay type: cell-based, human
- experimentalConditions: Homo sapiens, HAECT1; Ad5-wt-ER infected HAECT-1 cells; read-out: ER/CK EC50
reportedEndpoint: EC50

>>> readoutvalue("C[C@]12CC[C@@H]3c4ccc(O)cc4CC[C@H]3[C@@H]1CC[C@@H]2O [Example E2, 17β-estradiol, reference compound]")
"5.8 nM"

---

The following molecules are listed with their measured EC50 values.
- Tested on: creatine kinase expression in Ad5-wt-hERα infected HAECT-1 cells
- assayDetails: ER/CK: creatine kinase expression in Ad5-wt-ER infected HAECT-1 cells
- Assay type: cell-based, human
- experimentalConditions: Homo sapiens, HAECT1, read-out: ER/CK EC50 (nM)
reportedEndpoint: EC50 (nM)

>>> readoutvalue("O=C(c1cccc(O)c1)c1nn(C2CCCC2)c2ccccc12")
1330
>>> readoutvalue("CCCn1nc(C(=O)c2cccc(O)c2)c2ccccc21")
2640
>>> readoutvalue("CC(C)n1nc(C(=O)c2cccc(O)c2)c2ccccc21")
1790
>>> readoutvalue("O=C(c1cccc(O)c1)c1nn(C2CCCC2)c2c(C(F)(F)F)cccc12")
139
>>> readoutvalue("CC(C)Cn1nc(C(=O)c2cccc(O)c2)c2ccccc21")
1570

---

- Tested on: IL-6 expression in Ad5-wt-hERα infected HAECT-1 cells
- assayDetails: ER/IL-6: IL-6 expression (ELISA) in Ad5-wt-ER infected HAECT-1 cells
- Type: cell-based, human
- experimentalConditions: Ad5-wt-ER infected HAECT-1 cells, IL-1β
pIC50: −log10 of the molar value.
reportedEndpoint: pIC50

>>> readoutvalue("C[C@]12CC[C@@H]3c4ccc(O)cc4CC[C@H]3[C@@H]1CC[C@@H]2O [Example E2, 17β-estradiol, reference compound]")
8.77

---

reportedEndpoint: melting point

>>> readoutvalue("C=C(C)Cn1nc(C(=O)c2cccc(O)c2)c2ccccc21")
"75 to 78 °C"
>>> readoutvalue("O=C(c1cccc(O)c1)c1nn(C2CCCC2)c2c(C(F)(F)F)cccc12")
"152 °C"
>>> readoutvalue("CC(C)n1nc(C(=O)c2cccc(O)c2)c2cccc(C(F)(F)F)c21")
"145 °C"
>>> readoutvalue("CCCn1nc(C(=O)c2cccc(O)c2)c2cccc(C(F)(F)F)c21")
"118 °C"
>>> readoutvalue("O=C(c1ccc(O)cc1)c1nn(C2CCCC2)c2c(C(F)(F)F)cccc12")
"225 to 226 °C"
>>> readoutvalue("O=C(c1cccc(O)c1)c1nn(C2C=CCCC2)c2ccccc12 (stereo not shown)")
"140 to 141 °C"
>>> readoutvalue("CC(C)Cn1nc(C(=O)c2cccc(O)c2)c2ccccc21")
"108 to 110 °C"
>>> readoutvalue("C/C=C/Cn1nc(C(=O)c2cccc(O)c2)c2ccccc21")
"75 to 78 °C"
>>> readoutvalue("CC(C)=CCn1nc(C(=O)c2cccc(O)c2)c2ccccc21")
"92 to 94 °C"
>>> readoutvalue("Oc1cccc(Cc2n[nH]c3ccccc23)c1 [Example 1, 3-[(1H-indazol-3-yl)methyl]phenol]")
"170 to 172 °C"

---

- Tested on: NF-κB luciferase reporter in Ad5-wt-hERα infected HAECT-1 cells
- assayDetails: ER/NF-κB-luc: IL-1β induced NF-κB luciferase reporter in Ad5-wt-ER infected HAECT-1 cells
- Assay type: cell-based
- experimentalConditions: Homo sapiens, HAECT1; efficacy relative to the maximal inhibition observed with E2; read-out: ER/NF-KB-luc % Eff*
Label true (1) for high-side Emax (at or above 70%) and false (0) for low-side Emax (below it).

>>> group("CC(C)Cn1nc(C(=O)c2cccc(O)c2)c2ccccc21 [Example 17]")
"true (1)"
>>> group("Oc1cccc(Cc2nn(C3CCCC3)c3ccccc23)c1 [Example 6]")
"false (0)"
>>> group("O=C(c1cccc(O)c1)c1nn(C2CCCC2)c2c(C(F)(F)F)cccc12 [Example 12]")
"true (1)"
>>> group("O=C(c1cccc(O)c1)c1nn(C2CCCC2)c2ccccc12 [Example 4]")
"true (1)"
